# Tested on: TAB165
# measurement protocol: qHTS profiling for inhibitors of Plasmodium falciparum proliferation (AID 504749); also: nearly all actives have a fitted effect of over 60% in size
# recorded conditions: P. falciparum in erythrocytes, SYBR Green DNA, 72 h; series mostly up to 28.7 µM
Records with an inconclusive call do not appear. Activity calls are given as the source filed them. Calls follow the shape of the dose curve; as a rule, active = well fitted inhibition curve with a large enough effect; inconclusive = small, poorly fitted or top-dose-only effect; inactive = flat fitted curve, though single readings scatter.
Please reply with one of these outcomes: true (1) = active, false (0) = inactive

Answered cases to consult:
- compound: "CCCCCCCCCCCC(CC1OC(=O)C1CCCCCC)OC(=O)C(CC(C)C)NC=O (centres undefined)"
  assigned category: "true (1)"
- compound: "Nc1nc2c(c(=O)[nH]1)N(C=O)[C@H](CNc1ccc(C(=O)N[C@@H](CCC(=O)O)C(=O)O)cc1)CN2"
  assigned category: "false (0)"
- compound: "COc1ccc2c(c1OC)C(=O)OC2[C@H]1c2c(cc3c(c2OC)OCO3)CCN1C (some centres undefined)"
  assigned category: "false (0)"

For the next question, use this compound.
Hi, do you know how COc1cccc2c1C(=O)c1c(O)c3c(c(O)c1C2=O)C[C@@](O)(C(=O)CO)C[C@@H]3O[C@H]1C[C@H](N)[C@H](OC2CCCCO2)[C@H](C)O1 (some centres undefined) came out in this test?
true (1)
